Test system: A498 renal
assayExplanation: NCI tumour cell line growth inhibition, 48 h
// values below are reported TGI
resultType: TGI

INSERT INTO results (compound, targetofassay, resulttype, recordedresult) VALUES
  ('COc1cccc2c1-c1nc(N)c3c(OC)cccc3c1C2=O', 'A498 renal', 'TGI', '> 100 µM'),
  ('CC(C)=CCCC(C)(OC1OC(CO)C(O)C(O)C1O)C1CCC2(C)C1C(O)CC1C3(C)CCC(O)C(C)(C)C3C(OC3OC(CO)C(O)C(O)C3OC3OC(C)C(O)C(O)C3O)CC12C (centres undefined) (tested in a mixture with another compound)', 'A498 renal', 'TGI', '> 75 µM'),
  ('CC(C)N(C(=O)C12C3C4C1C1C2C3C41C#N)C(C)C (centres undefined)', 'A498 renal', 'TGI', '> 100 µM'),
  ('CC1(C)OP(=O)(c2ccccc2)C=C1Sc1ccc([N+](=O)[O-])cc1[N+](=O)[O-] (centres undefined)', 'A498 renal', 'TGI', '> 100 µM');

All values here come from PubChem BioAssay (NCI).
